# subject of test: UniProtKB O95271
# Sequence (O95271 whole entry): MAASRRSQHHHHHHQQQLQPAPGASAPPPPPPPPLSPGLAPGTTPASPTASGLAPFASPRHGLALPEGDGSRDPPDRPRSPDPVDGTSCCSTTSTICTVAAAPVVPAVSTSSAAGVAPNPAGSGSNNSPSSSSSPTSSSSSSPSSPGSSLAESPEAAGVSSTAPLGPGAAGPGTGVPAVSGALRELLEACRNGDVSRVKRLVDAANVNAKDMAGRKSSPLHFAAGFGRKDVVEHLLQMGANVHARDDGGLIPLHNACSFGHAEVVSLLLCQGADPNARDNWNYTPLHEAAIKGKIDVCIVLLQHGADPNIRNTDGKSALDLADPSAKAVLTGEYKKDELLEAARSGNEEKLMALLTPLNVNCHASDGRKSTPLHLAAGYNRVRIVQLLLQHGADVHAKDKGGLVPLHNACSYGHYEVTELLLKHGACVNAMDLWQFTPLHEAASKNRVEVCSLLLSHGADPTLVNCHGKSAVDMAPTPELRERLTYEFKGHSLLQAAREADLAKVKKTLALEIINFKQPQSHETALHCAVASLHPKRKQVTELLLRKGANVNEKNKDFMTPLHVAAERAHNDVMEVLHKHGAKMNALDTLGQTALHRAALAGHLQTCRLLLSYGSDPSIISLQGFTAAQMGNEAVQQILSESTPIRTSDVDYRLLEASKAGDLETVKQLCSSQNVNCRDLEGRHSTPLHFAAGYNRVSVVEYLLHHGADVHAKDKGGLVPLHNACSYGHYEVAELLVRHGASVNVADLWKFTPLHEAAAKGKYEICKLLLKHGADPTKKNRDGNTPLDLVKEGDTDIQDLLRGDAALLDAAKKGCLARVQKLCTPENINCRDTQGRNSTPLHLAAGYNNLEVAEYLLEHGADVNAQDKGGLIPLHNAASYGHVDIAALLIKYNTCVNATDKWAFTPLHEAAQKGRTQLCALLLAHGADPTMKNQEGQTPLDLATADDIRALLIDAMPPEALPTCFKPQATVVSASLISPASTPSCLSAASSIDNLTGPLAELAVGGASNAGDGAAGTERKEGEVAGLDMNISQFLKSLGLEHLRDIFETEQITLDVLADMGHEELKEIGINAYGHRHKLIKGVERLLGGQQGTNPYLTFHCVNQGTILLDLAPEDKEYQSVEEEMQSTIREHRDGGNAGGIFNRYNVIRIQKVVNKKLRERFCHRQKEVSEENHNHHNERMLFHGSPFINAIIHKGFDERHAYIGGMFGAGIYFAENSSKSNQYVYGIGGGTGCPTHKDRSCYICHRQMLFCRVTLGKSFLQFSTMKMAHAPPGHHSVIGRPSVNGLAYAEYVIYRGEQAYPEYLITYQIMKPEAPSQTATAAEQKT
# measurement description: Modified TNKS1 Assay 3 (BPS kit #80573, biotin-NAD+, 96 well)
# Type: biochemical
# test conditions: human TNKS1, BPS kit #80573, 96 well
readout label: IC50 (nM)

// solved cases for IC50 follow
>>> value_observed("O=C(Nc1ccc(NC(=O)c2nc[nH]c2C(=O)NCCN2CCC(O)CC2)cc1)c1ccc(F)cc1Cl")
5
>>> value_observed("CNC(=O)c1nc[nH]c1C(=O)Nc1ccc(NC(=O)c2ccc(C#N)cc2F)cc1")
260

A. O=C(Nc1ccc(NC(=O)c2[nH]cnc2C(=O)NCCCCCN2CCCC2)cc1)c1ccc(F)cc1Cl
B. COCCNC(=O)c1[nH]cnc1C(=O)Nc1ccc(NC(=O)c2ccc(F)cc2Cl)cc1
C. CN(C)CCNC(=O)c1nc[nH]c1C(=O)Nc1ccc(NC(=O)c2ccc(F)cc2Cl)cc1
D. CCc1nc(C(=O)Nc2ccc(NC(=O)c3ccc(F)cc3Cl)cc2)c(C(=O)NCCN2CCCCC2)[nH]1
Please rank these compounds by IC50 in descending order. Could you list the labels in the order requested?
B, A, C, D

1. CNC(=O)c1nc[nH]c1C(=O)Nc1ccc(NC(=O)c2ccc(F)cc2Br)cc1
2. CNC(=O)c1nc[nH]c1C(=O)Nc1ccc(NC(=O)c2ccc(F)cc2I)cc1
3. CN1CCCC1CCNC(=O)c1nc[nH]c1C(=O)Nc1ccc(NC(=O)c2ccc(F)cc2Cl)cc1 (stereo not shown)
4. O=C(Nc1ccc(NC(=O)c2nc[nH]c2C(=O)NCC2CCOCC2)cc1)c1ccc(F)cc1Cl
Please rank these compounds by IC50 in descending order. Could you list the labels in the order requested?
4, 2, 1, 3
(4: 480 nM, 2: 140 nM, 1: 90 nM, 3: 50 nM)

P. CC(CN1CCOCC1)NC(=O)c1[nH]cnc1C(=O)Nc1ccc(NC(=O)c2ccc(F)cc2Cl)cc1 (stereo not shown) [Example 268]
Q. CNC(=O)c1nc[nH]c1C(=O)Nc1ccc(NC(=O)c2ccccc2Br)cc1
R. O=C(Nc1ccc(NC(=O)c2nc[nH]c2C(=O)NCCN2CCC(F)(F)CC2)cc1)c1ccccc1Cl
Please rank these compounds by IC50 in descending order. Could you list the labels in the order requested?
Q, R, P
(Q: 330 nM, R: 200 nM, P: 110 nM)
